Item-by-item account of interaction score
Biological target: T1, 4H3865-AA
T1 chain: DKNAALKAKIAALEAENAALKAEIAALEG
Assay: two-hybrid library CCmax;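 also: natural log of median RNA to DNA barcode read ratio; higher means stronger binding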
Settings: mean of both orientations
Field format: numeric only.

# count of solved cases: 5
BINDER: DKNAALKAENAALEAEIAALEAKIAALKG [4H3718-AA]
PARAMETER: interaction score
OBSERVED: -1.49

BINDER: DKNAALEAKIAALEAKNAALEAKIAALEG [4H3381-AA]
PARAMETER: interaction score
OBSERVED: -1.52

BINDER: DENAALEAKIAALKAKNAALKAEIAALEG [4H1401-AA]
PARAMETER: interaction score
OBSERVED: 0.227

BINDER: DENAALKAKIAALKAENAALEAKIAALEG [4H1877-AA]
PARAMETER: interaction score
OBSERVED: 0.523

BINDER: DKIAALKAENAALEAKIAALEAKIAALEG [4H2725-AA]
PARAMETER: interaction score
OBSERVED: -1.16

Provide one value: measured interaction score of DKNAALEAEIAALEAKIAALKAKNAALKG [4H3120-AA]
-1.52

Indicate the recorded interaction score value for this binder: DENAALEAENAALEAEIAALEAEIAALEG [4H1153-AA]
-1.67
